biological target: Recombinant IKKβ (Homo sapiens, UniProt O14920); construct: purchased Millipore, Dundee, UK; experiment: DELFIA IKKβ kinase assay (apparent Ki, Cheng-Prusoff); type: biochemical; conditions: non-italicised figure: DELFIA assay
Sequence (O14920 whole entry): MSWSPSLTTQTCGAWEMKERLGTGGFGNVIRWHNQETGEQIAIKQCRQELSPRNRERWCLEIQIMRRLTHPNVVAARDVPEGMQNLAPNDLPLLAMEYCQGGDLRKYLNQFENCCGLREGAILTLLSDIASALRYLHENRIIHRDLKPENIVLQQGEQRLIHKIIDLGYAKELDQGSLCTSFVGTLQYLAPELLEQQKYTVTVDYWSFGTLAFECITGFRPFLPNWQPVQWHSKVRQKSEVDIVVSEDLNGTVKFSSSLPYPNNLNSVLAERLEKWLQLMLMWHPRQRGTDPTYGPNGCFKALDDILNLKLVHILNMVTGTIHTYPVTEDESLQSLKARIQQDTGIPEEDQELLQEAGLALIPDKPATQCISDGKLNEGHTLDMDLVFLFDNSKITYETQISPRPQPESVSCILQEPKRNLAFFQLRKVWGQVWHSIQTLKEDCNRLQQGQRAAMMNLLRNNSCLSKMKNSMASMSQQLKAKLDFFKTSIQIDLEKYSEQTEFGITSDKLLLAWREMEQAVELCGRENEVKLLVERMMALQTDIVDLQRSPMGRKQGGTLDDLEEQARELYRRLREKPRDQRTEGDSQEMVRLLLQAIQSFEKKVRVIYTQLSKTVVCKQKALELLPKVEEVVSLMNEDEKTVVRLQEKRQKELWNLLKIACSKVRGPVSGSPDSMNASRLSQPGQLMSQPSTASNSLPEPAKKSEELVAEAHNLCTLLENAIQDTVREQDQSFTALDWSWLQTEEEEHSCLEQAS
Below is a list of entries, each paired with its recorded Ki value.

mol: CNC(=O)C#Cc1c(-c2ccc3[nH]nc(N)c3c2)ccnc1N
relation-symbol: >
Ki (µM): 10

mol: COc1cccc(-c2cc(-c3ccnc(N)c3)cc3c(N)n[nH]c23)c1
relation-symbol: =
Ki (µM): 0.587

mol: Nc1ccc(C#Cc2c(-c3ccc4[nH]nc(N)c4c3)ccnc2N)cc1
relation-symbol: =
Ki (µM): 0.032

mol: Nc1cc(-c2cc(C(F)(F)F)c3[nH]nc(N)c3c2)ccn1
relation-symbol: =
Ki (µM): 0.194

mol: Nc1nccc(-c2ccc3[nH]nc(N)c3c2)c1C#CCCCN1CCOCC1
relation-symbol: =
Ki (µM): 1.15

mol: Nc1cc(-c2cc(-c3cncs3)c3[nH]nc(N)c3c2)ccn1
relation-symbol: =
Ki (µM): 0.316

mol: Nc1n[nH]c2ccc(-c3ccnc(NC(=O)Nc4cccc(CO)c4)c3)cc12
relation-symbol: =
Ki (µM): 0.419

mol: CC(C)Nc1cc(-c2ccc3[nH]nc(N)c3c2)ccn1
relation-symbol: =
Ki (µM): 0.587

mol: Nc1n[nH]c2ccc(-c3ccnc(NC(=O)c4ccccc4)c3)cc12
relation-symbol: =
Ki (µM): 0.35

mol: NC(=O)c1cccc(NC(=O)Nc2cc(-c3ccc4[nH]nc(N)c4c3)ccn2)c1
relation-symbol: =
Ki (µM): 0.503

mol: Nc1n[nH]c2ccc(-c3ccnc(NCCCO)n3)cc12
relation-symbol: =
Ki (µM): 0.46

mol: Nc1cc(-c2cc(-c3ccc(S(N)(=O)=O)cc3)c3[nH]nc(N)c3c2)ccn1
relation-symbol: =
Ki (µM): 1.48

mol: CC(C)(C)C#Cc1c(-c2ccc3[nH]nc(N)c3c2)ccnc1N
relation-symbol: =
Ki (µM): 0.268

All figures here come from patent US20250304576A1.
